Field: pIC50. Provide a value for each of the molecules that follow.
- target-desc: Cholinesterase (Equus caballus)
- Sequence (P81908 whole entry): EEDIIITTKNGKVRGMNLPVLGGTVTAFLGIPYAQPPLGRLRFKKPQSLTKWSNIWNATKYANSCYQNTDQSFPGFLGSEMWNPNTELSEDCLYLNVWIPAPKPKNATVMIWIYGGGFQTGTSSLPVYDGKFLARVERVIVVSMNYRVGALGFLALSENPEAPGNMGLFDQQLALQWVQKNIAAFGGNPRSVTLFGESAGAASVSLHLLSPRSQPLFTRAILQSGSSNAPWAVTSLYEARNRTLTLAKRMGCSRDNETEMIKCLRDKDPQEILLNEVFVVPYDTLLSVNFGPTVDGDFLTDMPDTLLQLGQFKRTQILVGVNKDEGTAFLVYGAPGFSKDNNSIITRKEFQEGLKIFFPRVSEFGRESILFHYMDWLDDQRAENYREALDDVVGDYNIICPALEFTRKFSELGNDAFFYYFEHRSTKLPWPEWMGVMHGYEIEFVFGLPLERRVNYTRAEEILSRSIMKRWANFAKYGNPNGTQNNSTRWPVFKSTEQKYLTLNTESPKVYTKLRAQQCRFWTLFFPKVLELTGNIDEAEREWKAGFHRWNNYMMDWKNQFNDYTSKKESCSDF
- experimental-details: Inhibition of equine serum BChE using butyrylthiocholine iodide as substrate preincubated for 15 mins followed by substrate addition by Ellman's method
Give bare numbers, as −log10 of the molar value.

Examples with answers:
QUERY: Recall the recorded pIC50 for `COc1cc2c(Nc3cccc(O)c3)c([N+](=O)[O-])cnc2cc1OCCCN(C)Cc1ccccc1` with Cholinesterase (Equus caballus) and state it.
RESULT: 4.97

QUERY: Find pIC50 (Cholinesterase (Equus caballus)) for the entry `COc1cc2c(Nc3ccc(O)cc3)c([N+](=O)[O-])cnc2cc1OCCCN(C)Cc1ccccc1`
RESULT: 4.76

QUERY: # query: pIC50 | item `COc1cccc(Nc2c([N+](=O)[O-])cnc3cc(OCCCN(C)Cc4ccccc4)c(OC)cc23)c1` | system: Cholinesterase (Equus caballus)
RESULT: 5.04

QUERY: Field: pIC50 (Cholinesterase (Equus caballus)). Entry: `COc1cc2c(Nc3ccc(Cl)cc3)c([N+](=O)[O-])cnc2cc1OCCC[n+]1ccccc1`
RESULT: 4.85

QUERY: Reported pIC50 for Cholinesterase (Equus caballus), given `COc1cc2c(Nc3cccc(C(F)(F)F)c3)c([N+](=O)[O-])cnc2cc1OCCCN(C)Cc1ccccc1` ?
RESULT: 4.26

QUERY: Lab note: need pIC50 for `COc1cc2c(Nc3ccc(Cl)cc3)c([N+](=O)[O-])cnc2cc1OCCCN(C)Cc1ccccc1` on Cholinesterase (Equus caballus), anyone have it?
RESULT: 4.76

QUERY: Quick check: pIC50 on Cholinesterase (Equus caballus), item `COc1cc2c(Nc3cccc(C)c3)c([N+](=O)[O-])cnc2cc1OCCCN(C)Cc1ccccc1` ?
RESULT: 5.56

QUERY: Recall the recorded pIC50 for `COc1ccccc1Nc1c([N+](=O)[O-])cnc2cc(OCCCN(C)Cc3ccccc3)c(OC)cc12` with Cholinesterase (Equus caballus) and state it.
RESULT: 5.06

Give one value of pIC50 per listed molecule.
1. COc1cc2c(Nc3ccccc3)c([N+](=O)[O-])cnc2cc1OCCCN(C)Cc1ccccc1
2. COc1cc2c(Nc3ccc(Cl)cc3Cl)c([N+](=O)[O-])cnc2cc1OCCCN(C)Cc1ccccc1

RESULT:
5.00
4.23
